# experiment: Solubility of Compound 1 in process solvents (ICH class solvents, NMP, DMAc, formic acid)
# Format: physicochemical
# experimental-conditions: dimethylacetamide (DMAc), organic solvent or mixture; read-out: Solubility in dimethylacetamide (DMAc)
# Excerpt: The final isolation of Compound 1 requires a polish filtration. For this, the batch must be completely soluble. The solubility curve of Compound 1 in formic acid-Water is quite steep (see FIG. 7), which enables a volumetrically efficient process.
parameter: solubility

I'd like to know its solubility. The compound in question is "Cn1cc(-c2cc(S(C)(=O)=O)ccc2OCC2CC2)c2ccccc2c1=O"
> 50 mg/mL

====

# experiment: Solubility of Compound 1 in process solvents (ICH class solvents, NMP, DMAc, formic acid)
# Assay type: physicochemical
# experimental-conditions: organic solvent or mixture; formic acid, 20° C.; read-out: Solubility in formic acid
parameter: solubility

I'd like to know its solubility. The compound in question is Cn1cc(-c2cc(S(C)(=O)=O)ccc2OCC2CC2)c2ccccc2c1=O [Compound 1]
> 250 mg/mL
